TARGET_SYSTEM: Nuclear receptor ROR-gamma (Mus musculus)
EXPERIMENT_DESCRIPTION: qHTS for inhibitors of ROR gamma transcriptional activity; also: nearly all actives have a fitted effect of over 60% in size; also: potency is read from the fitted curve at half-maximal effect
MEASUREMENT_PARAMETERS: Drosophila S2 Gal4-RORgamma UAS-luciferase reporter, 20 h; series mostly up to 53.6 µM
Screen size: about 310,000 compounds; about 17,000 (5.5%) were called active. Another 11% or so got no clear call; they are omitted. Only a selection was taken, and actives are over-represented in it overall.
ASSAY_ENDPOINT: Potency

Item c1ccc(-c2cc(N3CCCCC3)c3ccccc3n2)cc1 was tested on Nuclear receptor ROR-gamma (Mus musculus); the reported Potency is 14.1 µM (active)

The compound O=[N+]([O-])c1cccc(/C([O-])=C(/C(=S)Nc2ccccc2F)[n+]2ccccc2)c1 on Nuclear receptor ROR-gamma (Mus musculus): Potency was 12.6 µM (active)

Lab entry: Nuclear receptor ROR-gamma (Mus musculus) assay, compound COC(=O)c1c(NC(=O)c2ccc(S(=O)(=O)N3CCOCC3)cc2)sc2c1CCN(C(C)C)C2 , Potency = inactive

Lab entry: Nuclear receptor ROR-gamma (Mus musculus) assay, compound COc1cc(/C=N/O)cc(Br)c1OCc1cccc(Cl)c1 , Potency = 10 µM (active)

Kindly consider the entry below.
Short answer on Nuclear receptor ROR-gamma (Mus musculus) for COc1cccc(S(=O)(=O)NCc2ccc(C(=O)NCc3ccccn3)cc2)c1 , Potency: inactive

###

TARGET_SYSTEM: Nuclear receptor ROR-gamma (Mus musculus)
EXPERIMENT_DESCRIPTION: qHTS for inhibitors of ROR gamma transcriptional activity; also: nearly all actives have a fitted effect of over 60% in size
MEASUREMENT_PARAMETERS: Drosophila S2 Gal4-RORgamma UAS-luciferase reporter, 20 h; series mostly up to 53.6 µM
Out of some 310,000 compounds screened, about 17,000 (5.5%) were called active. Roughly 11% stayed inconclusive and do not appear here. The call rests on the fitted dose curve; in most records, active means well fitted inhibition curve with a large enough effect; inconclusive means small, poorly fitted or top-dose-only effect, or effect the other way; inactive means no such curve, though single readings can be large or run the other way. What follows is part of a selection rich in actives, with near analogues and random picks from the rest.
Choose the fitting class; nothing outside YES = active, NO = inactive is accepted.

Example entries and their recorded answers appear below.
Assay outcome for O=C(CCCn1c(=O)[nH]c2cc(Cl)ccc2c1=O)NCCN1CCN(c2ccccc2)CC1 : what was it?
NO

Could you kindly confirm the outcome this assay logged for Cc1cc(C)n(CC(=O)Nc2ccc([N+](=O)[O-])cc2)n1 ?
NO

Per the records of this test, what outcome belongs to O=C(Cc1csc(Nc2nc(=S)[nH]c3ccccc23)n1)NCCCN1CCN(c2cccc(Cl)c2)CC1 ?
YES

Continuing:
What call does the record list for C[C@H](NC(=O)C1CC(=O)N(c2ccc3c(c2)OCO3)C1)C(=O)NCc1ccco1 (stereo not given in full) ?
NO

Dear all, I need the recorded test outcome for COCC(C)n1c(C)cc(C(=O)CSc2cc(C)c3ccccc3n2)c1C (stereo not given) , thank you.
NO

###

TARGET_SYSTEM: Nuclear receptor ROR-gamma (Mus musculus)
EXPERIMENT_DESCRIPTION: qHTS for inhibitors of ROR gamma transcriptional activity; also: nearly all actives have a fitted effect of over 60% in size
MEASUREMENT_PARAMETERS: Drosophila S2 Gal4-RORgamma UAS-luciferase reporter, 20 h; series mostly up to 53.6 µM
Among all 310,000 compounds or so, about 17,000 (5.5%) were called active. Another 11% or so got no clear call; they are omitted. Calls come from the whole dose curve; as a rule, active = well fitted inhibition curve with a large enough effect; inconclusive = small, poorly fitted or top-dose-only effect, or effect the other way; inactive = no such curve, though single readings can be large or run the other way. Shown is part of a subset that was picked to be rich in actives.
Select the correct class. Options are yes (1) (active), no (0) (inactive) and nothing else.

As a guide, the following entries are already answered.
Could you check what this test reported for C[C@H](NC(=O)C1CCN(S(=O)(=O)c2ccccc2)CC1)C(=O)NCc1ccccc1 ?
no (0)

Could you please tell me the result logged for C=CCNc1nc(N)c([N+](=O)[O-])c(NC2CCCCC2)n1 in this assay?
no (0)

Status in this test for C[n+]1cc(-c2ccccc2)oc1-c1ccccc1 ?
no (0)

Answer briefly: the call reported for O=C(Nc1cccc(-n2cnnn2)c1)c1cccnc1 in this assay.
no (0)

Identify the outcome logged in this assay for the compound shown: CCOCCOC(=O)C1=C(C)NC(=O)NC1c1ccc2c(c1)OCO2 (stereo unspecified)
no (0)

Continuing:
What is the recorded call for this compound in the test? O=C(Nc1cccc(Cl)c1N1CCOCC1)c1cccnc1
no (0)

State the result this test recorded for O=C(NCC(=O)N1CCN(c2ccccc2O)CC1)c1ccc2ccccc2c1 .
no (0)

Which result was noted for this compound in the test: CCC(C)(C)C1CCC(=NNC(=O)c2ccc(Br)o2)CC1 (stereo unspecified)
yes (1)

Tell me the recorded outcome of this test for COc1ccc(N2C(=O)CN=C2Nc2cccc(C)c2C)cc1OC .
no (0)

Tell me the recorded outcome of this test for Cc1cccc(OC(C)C(=O)N2CCc3ccccc3C2)c1 (stereo unspecified) .
no (0)

Identify the outcome logged in this assay for the compound shown: CCOC(=O)C1=C(CCc2ccccc2)NC(=O)NC1c1ccc2ccccc2c1 (stereo unspecified)
no (0)

###

TARGET_SYSTEM: Nuclear receptor ROR-gamma (Mus musculus)
EXPERIMENT_DESCRIPTION: qHTS for inhibitors of ROR gamma transcriptional activity; also: nearly all actives have a fitted effect of over 60% in size
MEASUREMENT_PARAMETERS: Drosophila S2 Gal4-RORgamma UAS-luciferase reporter, 20 h; series mostly up to 53.6 µM
The whole screen tested about 310,000 compounds, of which about 17,000 (5.5%) were called active. Not shown: some 11% with an inconclusive outcome. Calls follow the shape of the dose curve; as a rule, active = well fitted inhibition curve with a large enough effect; inconclusive = small, poorly fitted or top-dose-only effect, or effect the other way; inactive = no such curve, though single readings can be large or run the other way. Many of the other results were omitted from the sample, so actives are more common in it than they were.
Valid outcomes are listed here; reply with one: active, inactive

Examples with answers:
Tell me the assay call for O=C(Cc1c[nH]c2ccccc12)N/N=C/c1cccc(F)c1 please.
inactive

Which result was noted for this molecule in the test: CCc1cc(=O)oc2c(C)c(OCC(=O)NCCN3CCOCC3)ccc12
inactive

What classification did COc1ccccc1NC(=O)/C=C/C(=O)O end up with in this test?
inactive

Next:
Assay outcome for COC(=O)c1ccccc1NC(=O)c1ccccc1NS(C)(=O)=O : what was it?
inactive

Record lookup: outcome of this test for Cc1ccc(/C=C/C(=O)Nc2ccc([N+](=O)[O-])c(NC(=O)/C=C/c3ccc(C)o3)c2)o1 ?
inactive

Which outcome did this test record for the molecule CC1CN(C(=S)Nc2ccc(Br)cc2Cl)CC(C)O1 (configuration not stated) ?
active

###

TARGET_SYSTEM: Nuclear receptor ROR-gamma (Mus musculus)
EXPERIMENT_DESCRIPTION: qHTS for inhibitors of ROR gamma transcriptional activity; also: nearly all actives have a fitted effect of over 60% in size; also: potency is read from the fitted curve at half-maximal effect
MEASUREMENT_PARAMETERS: Drosophila S2 Gal4-RORgamma UAS-luciferase reporter, 20 h; series mostly up to 53.6 µM
Text: NIH Molecular Libraries Probe Production Network [MLPCN] NIH Chemical Genomics Center [NCGC] […] Small molecule inhibitors of ROR gamma activity are detected by a decrease in luciferase reporter activity. […]
Out of some 310,000 compounds screened, about 17,000 (5.5%) were called active. Inconclusive results (about 11%) are left out. Only a selection was taken, and actives are over-represented in it overall.
ASSAY_ENDPOINT: Potency

Worked examples follow.
Potency on Nuclear receptor ROR-gamma (Mus musculus) for COc1ccc(-c2cc(=O)oc3cc(OCC(=O)N(C)C4CCS(=O)(=O)C4)ccc23)cc1 (stereo not given) is inactive

Potency on Nuclear receptor ROR-gamma (Mus musculus) for CC1(C)Cc2cccc(OCC(=O)NCc3ccccc3)c2O1 is inactive

Entry Cc1cc(C)c2nc(SCC(=O)N(C)C3CCS(=O)(=O)C3)cc(C)c2c1 (stereo not given) , tested on Nuclear receptor ROR-gamma (Mus musculus), has a reported Potency of inactive

Entry CCOC(=O)C1CCCN(C(=O)/C=C/c2ccc(OC)cc2)C1 (stereo not given) : Potency on Nuclear receptor ROR-gamma (Mus musculus) = inactive

GET /values?item= COc1ccc(C(=O)N2CCCC(C(=O)c3ccccc3OC)C2)cc1OC (stereo not given) &system= Nuclear receptor ROR-gamma (Mus musculus) returns Potency: inactive

GET /values?item= CC(C)c1ccc(N(C(=O)c2ccco2)C(C(=O)NC2CCCC2)c2cccnc2)cc1 (stereo not given) &system= Nuclear receptor ROR-gamma (Mus musculus) returns Potency: inactive

New cases:
Form: item CCOC(=O)N1CCC(N2Cc3cccc(C(=O)Nc4ccc(S(=O)(=O)N(CC)CC)cc4)c3C2=O)CC1 ; test system Nuclear receptor ROR-gamma (Mus musculus); Potency: inactive

The value of Potency recorded for O=C(NC(=S)N1CCCCC1c1cccnc1)c1ccccc1 (stereo not given) when tested on Nuclear receptor ROR-gamma (Mus musculus) reads 0.794 µM (active)

Summary: Cc1cc2occ(CC(=O)NNC(=O)c3ccccc3F)c2cc1C , Nuclear receptor ROR-gamma (Mus musculus), Potency = inactive

Lab entry: Nuclear receptor ROR-gamma (Mus musculus) assay, compound COc1ccc2c(-c3ccccc3)cc(SCC(=O)N(C)C3CCS(=O)(=O)C3)nc2c1 (stereo not given) , Potency = 10 µM (active)
